- Measurement target: human μ-opioid receptor (OPRM1) (Homo sapiens)
- Construct: host or cells: cAMP Hunter CHO-K1 (Chinese hamster ovary) cells
- Sequence (P35372 whole entry): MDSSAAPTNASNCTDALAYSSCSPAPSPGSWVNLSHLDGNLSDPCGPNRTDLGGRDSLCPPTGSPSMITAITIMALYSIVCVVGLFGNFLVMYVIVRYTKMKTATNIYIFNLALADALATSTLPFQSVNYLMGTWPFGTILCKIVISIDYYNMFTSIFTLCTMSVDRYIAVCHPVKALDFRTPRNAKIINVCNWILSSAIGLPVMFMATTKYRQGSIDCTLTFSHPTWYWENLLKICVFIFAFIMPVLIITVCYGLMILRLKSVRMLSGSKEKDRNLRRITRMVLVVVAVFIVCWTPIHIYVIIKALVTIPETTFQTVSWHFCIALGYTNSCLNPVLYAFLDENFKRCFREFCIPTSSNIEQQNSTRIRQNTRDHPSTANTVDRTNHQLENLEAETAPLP
- Assay comment: cell-based
- Condition parameters: read-out: MOR Agonist %Emax ± SEM
Parameter: Emax. Scope: all listed entries.
Entry rule: numbers only, all in %.

>>> recorded_value("CN[C@@H]1[C@H]2CCC[C@]1(c1cccc(O)c1)CCN2CCc1ccccc1")
28
>>> recorded_value("ON=C1[C@H]2CCC[C@]1(c1cccc(O)c1)CCN2CCc1ccccc1")
99
>>> recorded_value("CNC[C@@H]1[C@@H]2CCC[C@@]1(c1cccc(O)c1)CCN2CCc1ccccc1")
102
>>> recorded_value("N[C@H]1[C@H]2CCC[C@]1(c1cccc(O)c1)CCN2CCc1ccccc1")
81
>>> recorded_value("N[C@@H]1[C@@H]2CCC[C@@]1(c1cccc(O)c1)CCN2CCc1ccccc1")
53

Q. Give Emax for "ON=C1[C@@H]2CCC[C@@]1(c1cccc(O)c1)CCN2CCc1ccccc1"
A. 91

Q. Give Emax for "N#CC=C1[C@H]2CCC[C@]1(c1cccc(O)c1)CCN2CCc1ccccc1"
A. 100
